system: UO-31 renal; experiment: NCI tumour cell line growth inhibition, 48 h; in the data active = GI50 below about 0.43 µM; inactive = the rest
Classes used: 1 (active), 0 (inactive)

>>> assigned_class("Nc1ncc(-c2ccc3ncnc(Nc4ccc(F)c(Cl)c4)c3c2)cn1")
0
>>> assigned_class("N#Cc1nn(-c2cc(=O)[nH]c3ccc(Cl)cc23)c(N)c1C#N")
0
>>> assigned_class("COc1ccc(-c2ccc(=O)oc2C#Cc2cc(OC)c(OC)c(OC)c2)cc1O")
0
>>> assigned_class("Clc1cc2c(c(CSc3nc4ccccc4n4cccc34)c1)OCOC2")
0
>>> assigned_class("O=c1c(F)cn(Cc2ccc(C34CC5CC(CC(C5)C3)C4)c(O)c2)c(=O)n1Cc1ccc(C23CC4CC(CC(C4)C2)C3)c(O)c1")
0
>>> assigned_class("CC(=O)Nc1ccc(-c2csc(Nc3cccc(-c4csc(C)n4)c3)n2)cc1")
0
>>> assigned_class("CCCC(=O)Nc1cn(COC)c(C(=O)N2C[C@@H]3C[C@]34C2=CC(=O)c2[nH]cc(C)c24)n1")
0
>>> assigned_class("Cc1nnc(Nc2ccc(NC(=O)Nc3ccc(Cl)cc3)cc2)c2ccccc12")
0
>>> assigned_class("CCN1CCN(c2cc(C)c3cc(NC(=O)c4ccc(OC)c(OC)c4)ccc3n2)CC1")
0
>>> assigned_class("NC1CCN(Cc2ccccc2)CC1")
0
>>> assigned_class("NC(N)=N/N=C/c1c(Cl)cccc1Cl")
0
>>> assigned_class("CC(C)(/C=C(\\C#N)C(=O)N1CCC[C@@H](n2nc(-c3ccc(Oc4ccccc4)cc3F)c3c(N)ncnc32)C1)N1CCN(C2COC2)CC1")
0
>>> assigned_class("CN(C)C1CCN(C(=O)c2ccc(NC(=O)Nc3ccc(-c4nc(N5CCOCC5)c5cccn5n4)cc3)cc2)CC1")
0
>>> assigned_class("CN1CCN(c2ccc(Nc3cc(-c4cccc(-n5ccc6cc(C7CC7)cc(F)c6c5=O)c4CO)cn(C)c3=O)nc2)CC1")
0
>>> assigned_class("CCC[CH2][Sn]([CH2]CCC)([O]C(=O)c1ccc(OC)c(OC)c1OC)[O][Sn]([CH2]CCC)([CH2]CCC)[O]C(=O)c1ccc(OC)c(OC)c1OC")
0
>>> assigned_class("S=c1[nH]c(=S)c2cc3ccccc3nc2[nH]1")
0
>>> assigned_class("COc1cc(N=Nc2ccc(O)c3ncccc23)c2ncccc2c1")
0
>>> assigned_class("O=C(Nc1ccc(Br)cc1F)c1cc(Cl)ccc1O")
1
>>> assigned_class("COc1cnc2c(c1)C(=O)c1c-2n(CCCNC2=NCCS2)c(=O)c2cc([N+](=O)[O-])ccc12")
1

====

system: OVCAR-4 ovarian; assay: NCI tumour cell line growth inhibition, 48 h
result type: TGI

>>> reading("NC1CCN(Cc2ccccc2)CC1")
"> 100 µM"
>>> reading("CCC(C)(C)c1ccc(OCCCCNC(=O)c2ccc3ccccc3c2O)c(C(C)(C)CC)c1")
"> 100 µM"
>>> reading("OC[C@H]1O[C@@H]2O[C@@](COCc3ccccc3)([C@H](OCc3ccccc3)[C@H]2O)[C@@H]1OCc1ccccc1")
"10.8 µM"
>>> reading("N#CNC(=NCc1ccccc1)N(Cc1ccccc1)Cc1ccccc1")
"> 31.6 µM"
>>> reading("COc1cccc(N2C(Cl)C(=O)C2c2c[nH]c3ccccc23)c1 (stereo not given)")
"> 100 µM"
>>> reading("Cc1nn(-c2ccccc2)c2c1C(c1cc3ccccc3nc1Cl)NC(=O)N2 (stereo not given)")
"> 100 µM"
>>> reading("O=C(O)CN1CCNCCN(CC(=O)O)CCN(CC(=O)O)CCNCC1")
"> 100 µM"
>>> reading("CC(C)(/C=C(\\C#N)C(=O)N1CCC[C@@H](n2nc(-c3ccc(Oc4ccccc4)cc3F)c3c(N)ncnc32)C1)N1CCN(C2COC2)CC1")
"20.4 µM"
>>> reading("COc1ccc(-c2nnc3n(C)c(=O)c4ccccc4n23)cc1N")
"> 100 µM"
>>> reading("Cc1nc(Nc2cccnc2)sc1C(=O)/C=C/c1ccc(F)cc1")
"> 100 µM"
>>> reading("COc1cc(Cl)cc(-c2nn(-c3cccc(NC(=O)c4ccc(N5CCOCC5)c(C(F)(F)F)c4)c3)cc2-c2ccncc2)c1")
"> 100 µM"
>>> reading("COc1ccc(N2C(=O)CC(=O)N(NC(=O)C(C)Oc3ccccc3C)C2=S)cc1 (stereo not given)")
"> 100 µM"
>>> reading("Cc1nc(C)c(N2CCN([N+](=O)[O-])CC2)c(=O)[nH]1")
"> 100 µM"
>>> reading("C[n+]1c(/C=C/c2c(O)ccc3ccccc23)ccc2ccccc21")
"10.5 µM"
>>> reading("Nc1ncc(-c2ccc3ncnc(Nc4ccc(F)c(Cl)c4)c3c2)cn1")
"2.97 µM"
>>> reading("O=C(NC[C@H](O)CN1CCc2ccccc2C1)c1cc(NC2COC2)ncn1")
"> 100 µM"
>>> reading("NCCCN1c2ccccc2Sc2ccc(Cl)cc21")
"> 10 µM"
>>> reading("BrC(=C(c1ccc(OC2CCCCO2)cc1)c1ccc(OC2CCCCO2)cc1)c1ccccc1 (stereo not given)")
"> 100 µM"
>>> reading("C[C@H](CCC(=O)O)[C@H]1CC[C@H]2[C@@H]3C(=O)C[C@@H]4C[C@H](O)CC[C@]4(C)[C@H]3C[C@H](O)[C@]12C")
"> 100 µM"
>>> reading("N[C@@H](Cc1ccccc1)C(=O)N1CCC[C@@H]1P(=O)(Oc1ccccc1)Oc1ccccc1")
"> 100 µM"

====

test system: NCI-H226 lung; assay: NCI tumour cell line growth inhibition, 48 h
result type: TGI (µM)

>>> reading("CCOC(=O)c1nc2c(OC)nn(O)cc-2c1[N+](=O)[O-]")
79.6
>>> reading("Cc1ccc(C)c(NC(=O)c2cccc([N+](=O)[O-])c2O)c1")
68.8
>>> reading("Cc1ccc(C2=CC(=O)OC(C[P+](c3ccccc3)(c3ccccc3)c3ccccc3)(c3ccccc3)O2)cc1 (stereo not drawn)")
60.4
>>> reading("CCCCCCCCCCCC[S+](C)C")
15.4
>>> reading("CC(=O)Nc1ccc(-c2csc(Nc3cccc(-c4csc(C)n4)c3)n2)cc1")
16.8
>>> reading("Cc1ccc2nc(/C(=C/c3ccc(/C=C(\\NC(=O)c4ccccc4)c4nc5ccc(C)cc5[nH]4)c(C)c3)NC(=O)c3ccccc3)[nH]c2c1")
77.5
>>> reading("CC1=Cc2cccc(C)c2C(=O)C1=O")
30.5
>>> reading("CCOC(=O)Nc1cc2c(c(N)n1)N=C(c1ccccc1)CO2")
41.4

====

test system: NCI-H522 lung; test: NCI tumour cell line growth inhibition, 48 h
result type: TGI (µM)

>>> reading("S=c1[nH]c(=S)c2cc3ccccc3nc2[nH]1")
51.7
>>> reading("CC(=O)ON1CCCC(P(=O)(OCCSC(=O)C(C)(C)C)OCCSC(=O)C(C)(C)C)C1=O (stereo not given)")
20.9
>>> reading("N#CC(C#N)=C1SC(=Nc2ccccc2)C(=Nc2ccccc2)N1c1ccccc1")
4.08

====

tested on: M14 melanoma; experiment: NCI tumour cell line growth inhibition, 48 h; in the data active = GI50 below about 0.43 µM; inactive = the rest
Possible outcomes: T (active), F (inactive)

>>> assigned_class("COc1cc(N(CCC#N)CCC#N)ccc1/C(N=Nc1ccc(Cl)cc1)=N/NC(=O)c1cc(Br)ccc1O")
"F"
>>> assigned_class("NC1CCN(Cc2ccccc2)CC1")
"F"
>>> assigned_class("Cc1cc(N[C@@H]2CCC[C@H](Nc3ccnc4cc(Cl)ccc34)C2)nc(N2CCCCCC2)n1")
"F"
>>> assigned_class("CN(C)C1CCN(C(=O)c2ccc(NC(=O)Nc3ccc(-c4nc(N5CCOCC5)c5cccn5n4)cc3)cc2)CC1")
"T"
>>> assigned_class("O=c1c(F)cn(Cc2ccc(C34CC5CC(CC(C5)C3)C4)c(O)c2)c(=O)n1Cc1ccc(C23CC4CC(CC(C4)C2)C3)c(O)c1")
"F"
>>> assigned_class("CC1(C)OC2C(CO[Si](C)(C)C(C)(C)C)OC(n3c(I)c(C#C[Si](C)(C)C)c(=O)[nH]c3=O)C2O1 (configuration not stated)")
"F"
>>> assigned_class("CC(=O)ON1CCCC(P(=O)(OCCSC(=O)C(C)(C)C)OCCSC(=O)C(C)(C)C)C1=O (configuration not stated)")
"F"
>>> assigned_class("COc1cc(N=Nc2ccc(O)c3ncccc23)c2ncccc2c1")
"F"
>>> assigned_class("COc1ccc(-c2nnc3n(C)c(=O)c4ccccc4n23)cc1N")
"T"
>>> assigned_class("Clc1cc2c(c(CSc3nc4ccccc4n4cccc34)c1)OCOC2")
"F"
>>> assigned_class("O=C(Cc1ccc(F)c(Cl)c1)Nc1cc(C2(C(F)(F)F)CC2)nn1CC1CCCCC1")
"F"
>>> assigned_class("CN(C)CC[C@H](CSc1ccccc1)Nc1ccc(S(=O)(=O)NC(=O)c2ccc(N3CCN(Cc4ccccc4-c4ccc(Cl)cc4)CC3)cc2)cc1[N+](=O)[O-]")
"F"

Source listed as PubChem BioAssay (NCI).
